Biological target: human OX2R (Homo sapiens, UniProt O43614)
Sequence (O43614 1-444): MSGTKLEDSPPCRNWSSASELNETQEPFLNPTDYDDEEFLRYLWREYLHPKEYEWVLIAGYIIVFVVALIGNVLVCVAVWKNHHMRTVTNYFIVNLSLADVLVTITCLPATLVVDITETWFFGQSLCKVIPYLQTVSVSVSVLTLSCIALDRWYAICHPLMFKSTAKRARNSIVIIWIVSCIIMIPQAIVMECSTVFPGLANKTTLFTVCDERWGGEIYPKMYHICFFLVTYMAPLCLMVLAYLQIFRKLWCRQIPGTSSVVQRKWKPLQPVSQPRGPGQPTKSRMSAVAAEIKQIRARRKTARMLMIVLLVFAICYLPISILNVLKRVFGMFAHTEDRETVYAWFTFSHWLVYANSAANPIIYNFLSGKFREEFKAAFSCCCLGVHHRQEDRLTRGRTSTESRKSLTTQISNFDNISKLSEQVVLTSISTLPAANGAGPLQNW
Experiment: IPOne (IP-1) orexin receptor agonist assay in CHO cells expressing human OX2R
Conditions: IPOne assay, CHO cells expressing human OX2R, 2 hours incubation; read-out: hoX2R_IP IC50
pIC50: −log10 of the molar value.
RECORDED ENDPOINT: pIC50

>  <MOLECULE>
C[C@@H]1C[C@H](NS(C)(=O)=O)[C@H](CO[C@H]2CC[C@@]3(c4ncc(F)cn4)C[C@H]3C2)N1C(=O)OCC1(F)CCC1

>  <TEST VALUE>
8.21

$$$$
>  <MOLECULE>
COC(=O)N1[C@H](C)C[C@H](NS(=O)(=O)N2CCC2)[C@@H]1CO[C@@H]1CC[C@]2(c3ncc(F)cn3)C[C@@H]2C1

>  <TEST VALUE>
7.31

$$$$
>  <MOLECULE>
COC(=O)N1[C@H](C)C[C@H](NS(=O)(=O)N(C)C)[C@@H]1COC1CCC2(c3cccc(F)c3)CC2C1 (mixture of isomers)

>  <TEST VALUE>
6.73

$$$$
